- TARGET_ENTITY: human enzyme NAMPT (full length) (Homo sapiens)
- Construct: human enzyme NAMPT (full length)
- Sequence (P43490 whole entry): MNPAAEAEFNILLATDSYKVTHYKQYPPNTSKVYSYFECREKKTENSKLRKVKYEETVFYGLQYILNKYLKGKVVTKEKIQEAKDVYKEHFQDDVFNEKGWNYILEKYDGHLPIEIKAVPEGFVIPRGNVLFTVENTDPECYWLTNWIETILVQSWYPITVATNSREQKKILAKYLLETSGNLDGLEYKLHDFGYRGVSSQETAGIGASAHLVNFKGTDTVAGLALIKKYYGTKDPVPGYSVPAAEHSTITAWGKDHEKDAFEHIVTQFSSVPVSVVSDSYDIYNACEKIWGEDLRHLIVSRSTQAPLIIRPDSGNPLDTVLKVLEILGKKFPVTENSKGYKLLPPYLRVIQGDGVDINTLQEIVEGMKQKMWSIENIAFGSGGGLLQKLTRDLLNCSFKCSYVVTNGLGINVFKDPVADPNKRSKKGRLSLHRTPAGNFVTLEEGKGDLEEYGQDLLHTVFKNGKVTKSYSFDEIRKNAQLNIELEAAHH
- PROCEDURE_TEXT: NMN fluorescence biochemical assay (stimulation of NMN synthesis by NAMPT)
- CONDITION_SET: fold change of maximal activation compared to DMSO
RECORDED_METRIC: Enzymatic Emax

Example compounds with recorded Enzymatic Emax:
COMPOUND: CC(=O)Nc1ccc(CN2C(=O)c3ccccc3C2C)cc1 (stereo not drawn) [Compound 82]
ENDPOINT_VALUE: B (3≥B>2)
--
COMPOUND: N#Cc1ncccc1CC1c2ccccc2C(=O)N1Cc1ccc2[nH]c(=O)oc2c1 (stereo not drawn) [Compound 201]
ENDPOINT_VALUE: A (A>3)
--
COMPOUND: COc1ccc(CN2C(=O)c3ccccc3C2Cc2c(C)ncnc2C#N)cc1 (stereo not drawn) [Compound 597]
ENDPOINT_VALUE: B (3≥B>2)
--
COMPOUND: O=C1c2ccccc2C(Cc2cccnc2)N1Cc1ccc2[nH]c(=O)oc2c1 (stereo not drawn) [Compound 137]
ENDPOINT_VALUE: B (3≥B>2)
--
COMPOUND: O=C1c2ccccc2C(Cc2ncccc2Br)N1CC1CC2(CC(O)C2)C1 (stereo not drawn) [Compound 321]
ENDPOINT_VALUE: B (3≥B>2)
--
COMPOUND: O=C1c2ccccc2C(Cc2ncccc2Br)N1CC#Cc1cn[nH]n1 (stereo not drawn) [Compound 417]
ENDPOINT_VALUE: B (3≥B>2)
--
COMPOUND: Cn1ncc(Cl)c1CC1c2cc(N3CCOCC3)ccc2C(=O)N1CC1CC2(CNC(=O)O2)C1 (stereo not drawn) [Compound 463]
ENDPOINT_VALUE: B (3≥B>2)
--
COMPOUND: CC(C)(C)c1ccc2c(c1)C(=O)N(Cc1ccc(O)cc1)C2=O [Compound 18]
ENDPOINT_VALUE: B (3≥B>2)

Kindly consider the entry below.
Q: # query: Enzymatic Emax of entry Cc1cc(Cl)n(CC2c3ccccc3C(=O)N2Cc2ccc3[nH]nnc3c2)n1 (stereo not drawn) [Compound 355]
Ans: A (A>3)
